// TNFα (Homo sapiens, UniProt P01375) IC50 records
MEASUREMENT_NAME: IC50 (µM)

INSERT INTO results (compound, target_entity, endpoint_unit, reported_relation, test_value) VALUES
  ('CCCN(CCOCCN(Cc1cccnc1F)Cc1cn(S(=O)(=O)c2ccccc2)c2ccccc12)C1CCCC1 [Compound 108]', 'TNFα (Homo sapiens, UniProt P01375)', 'µM', '=', 9.6),
  ('O=S(=O)(c1ccccc1)n1cc(CN(CCNC2CCCCC2)Cc2cccnc2)c2ccccc21', 'TNFα (Homo sapiens, UniProt P01375)', 'µM', '=', 22.6),
  ('NCCCCN(Cc1cccnc1F)Cc1cn(S(=O)(=O)c2ccccc2)c2ccccc12', 'TNFα (Homo sapiens, UniProt P01375)', 'µM', '=', 26.5),
  ('CN(C)S(=O)(=O)NCCCCN(Cc1cccnc1F)Cc1cn(S(=O)(=O)c2ccccc2)c2ccccc12', 'TNFα (Homo sapiens, UniProt P01375)', 'µM', '>', 50),
  ('O=S(=O)(NCCCCN(Cc1cccnc1F)Cc1cn(S(=O)(=O)c2ccccc2)c2ccccc12)N1CCOCC1', 'TNFα (Homo sapiens, UniProt P01375)', 'µM', '>', 50),
  ('CN(CCCCN(Cc1ccn(S(=O)(=O)c2ccccc2)c1)Cc1cccnc1F)C1CCCCC1', 'TNFα (Homo sapiens, UniProt P01375)', 'µM', '=', 27.5),
  ('CN1CCN(S(=O)(=O)n2cc(CN(CCCCN(C)C3CCCCC3)Cc3cccnc3F)c3ccccc32)CC1', 'TNFα (Homo sapiens, UniProt P01375)', 'µM', '=', 8.4),
  ('FC(F)(F)c1cccc(-n2cc(CN(Cc3ccncc3)CC3CCCN(C4CCCCC4)C3)c3ccccc32)c1 (centres unmarked)', 'TNFα (Homo sapiens, UniProt P01375)', 'µM', '=', 16.6),
  ('NS(=O)(=O)NCCCCN(Cc1cccnc1F)Cc1cn(S(=O)(=O)c2ccccc2)c2ccccc12', 'TNFα (Homo sapiens, UniProt P01375)', 'µM', '>', 50),
  ('CCCCN(CCOCCN(Cc1cccnc1F)Cc1cn(S(=O)(=O)c2ccccc2)c2ccccc12)C1CCCCC1 [Compound 99]', 'TNFα (Homo sapiens, UniProt P01375)', 'µM', '=', 8.2),
  ('CN(CCCCN(Cc1cccc(F)n1)Cc1cn(S(=O)(=O)c2ccccc2)c2ccccc12)C1CCCCC1', 'TNFα (Homo sapiens, UniProt P01375)', 'µM', '=', 7.9);

----------
- TARGET_ENTITY: IL-13 (Homo sapiens)
- Sequence (P35225 25-146, species assumed): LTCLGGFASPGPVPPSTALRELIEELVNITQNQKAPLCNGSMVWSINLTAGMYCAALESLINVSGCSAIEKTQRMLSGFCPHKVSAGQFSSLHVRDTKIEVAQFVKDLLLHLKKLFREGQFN
- ASSAY_DETAILS: Immunoassay binding test, IL-13
- MEASUREMENT_SETUP: 100 μM
- Protocol: Microtiter plates (96 wells) are covered with 100 μl of receptor per well, and incubated overnight at 4° C. The following day, after 2 washes in PBS/Tween20, the plates are saturated with 150 μl of PBS/BSA 2% per well, for 2 h at 37° C. […] The plates are then read with a spectrophotometer at 450 nm, measuring the optical density for each well. […]
MEASUREMENT_NAME: BINDING IL13 % Neutra at 100 μM (%)

INSERT INTO assay_data (molecule, test_value) VALUES
  ('CN(CCCN(Cc1ccncc1)Cc1cn(-c2cccc(C(F)(F)F)c2)c2ccccc12)C1CCCCC1 [Compound 14]', 91.2),
  ('CN(CCN(Cc1cccnc1)Cc1cn(S(=O)(=O)c2ccccc2)c2ccccc12)C1CCCCC1 [Compound 27]', 53.9),
  ('FC(F)(F)c1cccc(-n2cc(CN(CCCCCNC3CCCCC3)Cc3ccncc3)c3ccccc32)c1 [Compound 37]', 96.4),
  ('CN(CCCCCN(Cc1cccnc1F)Cc1cn(S(=O)(=O)c2ccccc2)c2ccccc12)C1CCCCC1 [Compound 52]', 88.1),
  ('CCCCN(CCCCN(Cc1cccnc1F)Cc1cn(S(=O)(=O)c2ccccc2)c2ccccc12)C1CCCCC1 [Compound 68]', 81.6);

----------
- TARGET_ENTITY: UniProtKB P35225
- ASSAY_DETAILS: Immunoassay binding test, IL-13
- MEASUREMENT_SETUP: 100 μM
The entries below come with measured BINDING IL13 % Neutra at 100 μM values attached.
MEASUREMENT_NAME: BINDING IL13 % Neutra at 100 μM

INSERT INTO results (compound, measurement_name, test_value) VALUES
  ('FC(F)(F)c1cccc(-n2cc(CN(CCNC3CCCCC3)Cc3cccnc3)c3ccccc32)c1', 'BINDING IL13 % Neutra at 100 μM', '93.6%'),
  ('CCCN(CCOCCN(Cc1cccnc1F)Cc1cn(S(=O)(=O)c2ccccc2)c2ccccc12)C1CCCCC1 [Compound 97]', 'BINDING IL13 % Neutra at 100 μM', '73.9%'),
  ('CN(CCOCCN(Cc1cccnc1F)Cc1cn(S(=O)(=O)c2ccccc2)c2ccccc12)C1CCCCC1', 'BINDING IL13 % Neutra at 100 μM', '79.3%'),
  ('O=S(=O)(c1ccccc1)n1cc(CN(Cc2cccnc2)CC2CCCN(C3CCCCC3)C2)c2ccccc21 (stereo not shown)', 'BINDING IL13 % Neutra at 100 μM', '96.9%'),
  ('CCCN(CCOCCN(Cc1cccnc1F)Cc1cn(S(=O)(=O)c2ccccc2)c2ccccc12)C1CCCCC1 [Compound 101]', 'BINDING IL13 % Neutra at 100 μM', '56.3%'),
  ('CN(CCCCN(Cc1ccn(S(=O)(=O)c2ccccc2)c1)Cc1cccnc1F)C1CCCCC1', 'BINDING IL13 % Neutra at 100 μM', '35.8%'),
  ('CCn1cc(CN(CCCCN(C)C2CCCCC2)Cc2cccnc2F)c2ccccc21', 'BINDING IL13 % Neutra at 100 μM', '0%'),
  ('CN(CCCCN(Cc1cccnc1F)Cc1cn(S(=O)(=O)c2ccccc2)c2ccccc12)C1CCCC1', 'BINDING IL13 % Neutra at 100 μM', '92.1%'),
  ('CN(CCCN(Cc1cccnc1)Cc1cn(-c2cccc(C(F)(F)F)c2)c2ccccc12)C1CCCCC1', 'BINDING IL13 % Neutra at 100 μM', '85.2%'),
  ('CN(CCOCCN(Cc1cccnc1F)Cc1cn(S(=O)(=O)c2ccccc2)c2ccccc12)C1CCCC1 [Compound 104]', 'BINDING IL13 % Neutra at 100 μM', '79.8%'),
  ('CN1CCN(C(=O)NCCCCN(Cc2cccnc2F)Cc2cn(S(=O)(=O)c3ccccc3)c3ccccc23)CC1', 'BINDING IL13 % Neutra at 100 μM', '1%'),
  ('O=S(=O)(c1ccccc1)n1cc(CN(CCCCNC2CCCCC2)Cc2ccncc2)c2ccccc21', 'BINDING IL13 % Neutra at 100 μM', '88.2%'),
  ('O=S(=O)(c1ccccc1)n1cc(CN(CCCCNC2CCCCC2)Cc2cccnc2F)c2ccccc21', 'BINDING IL13 % Neutra at 100 μM', '85.1%'),
  ('CN(CCCCCN(Cc1cccc(F)n1)Cc1cn(S(=O)(=O)c2ccccc2)c2ccccc12)C1CCCCC1', 'BINDING IL13 % Neutra at 100 μM', '92.5%'),
  ('CN(CCCCN(Cc1cccnc1)Cc1cn(S(=O)(=O)c2ccccc2)c2ccccc12)C1CCCCC1', 'BINDING IL13 % Neutra at 100 μM', '87.7%'),
  ('CN(CCN(Cc1cccnc1)Cc1cn(-c2cccc(C(F)(F)F)c2)c2ccccc12)C1CCCCC1', 'BINDING IL13 % Neutra at 100 μM', '76.3%');
